Values from patent US3954733A

system: Pseudomonas aeruginosa 104; assay: minimal inhibitory concentration, agar dilution method; format: cell-based
outcome-measure: MIC (µg/mL)

Reference set (5 entries):
compound=CC1(C)S[C@@H]2[C@H](NC(=O)[C@H](NC(=O)c3cnc4ccncc4c3O)c3ccc(O)cc3)C(=O)N2[C@H]1C(=O)O measured_result=6.25
compound=COc1cnc2c(O)c(C(=O)N[C@@H](C(=O)N[C@@H]3C(=O)N4[C@@H]3SC(C)(C)[C@@H]4C(=O)O)c3ccc(O)cc3)cnc2n1 measured_result=3.13
compound="CC1(C)S[C@@H]2[C@H](NC(=O)C(NC(=O)c3cnc4cccnc4c3S)c3cc(Cl)c(O)c(Cl)c3)C(=O)N2[C@H]1C(=O)O (stereo partly drawn)" measured_result=6.25
compound=CCOC(=O)Oc1ccc([C@@H](NC(=O)c2cnc3ccc(N(C)C)nc3c2O)C(=O)N[C@@H]2C(=O)N3[C@@H]2SC(C)(C)[C@@H]3C(=O)O)cc1Cl measured_result=3.13
compound=CCOC(=O)Oc1ccc([C@@H](NC(=O)c2cnc3nc(C)ccc3c2O)C(=O)N[C@@H]2C(=O)N3[C@@H]2SC(C)(C)[C@@H]3C(=O)O)cc1 measured_result=3.13

[1] CCOC(=O)Oc1c(C(=O)N[C@@H](C(=O)N[C@@H]2C(=O)N3[C@@H]2SC(C)(C)[C@@H]3C(=O)O)c2ccc(OC(=O)OCc3ccccc3)cc2)cnc2cccnc12
[2] CC1(C)S[C@@H]2[C@H](NC(=O)[C@H](NC(=O)c3nnc4ccccc4c3O)c3ccc(O)cc3)C(=O)N2[C@H]1C(=O)O
[3] CC(C)COC(=O)Oc1ccc([C@@H](NC(=O)c2cnc3nc(N(C)C)ncc3c2O)C(=O)N[C@@H]2C(=O)N3[C@@H]2SC(C)(C)[C@@H]3C(=O)O)cc1
Q: Ranking field: MIC; order: falling. Write the labels out in the order the request specifies.
Result: 2, 3, 1
(2: 12.5 µg/mL, 3: 6.25 µg/mL, 1: 3.13 µg/mL)

###

system: Pseudomonas aeruginosa 104; assay: minimal inhibitory concentration, agar dilution method; format: cell-based
outcome-measure: MIC (µg/mL)

Reference set (3 entries):
molecule="CC1(C)S[C@@H]2[C@H](NC(=O)[C@H](NC(=O)c3cnc4cccnc4c3S)c3ccc(O)cc3)C(=O)N2[C@H]1C(=O)O [Example 43]" outcome_measure=MIC measured_result=1.56
molecule="Cc1nc(C)c2ncc(C(=O)N[C@@H](C(=O)N[C@@H]3C(=O)N4[C@@H]3SC(C)(C)[C@@H]4C(=O)O)c3ccc(O)cc3)c(O)c2n1 [Example 35]" outcome_measure=MIC measured_result=1.56
molecule="CCOC(=O)Oc1ccc(C(NC(=O)c2cnc3ccc(N(C)C)nc3c2O)C(=O)N[C@@H]2C(=O)N3[C@@H]2SC(C)(C)[C@@H]3C(=O)O)cc1 (mixture of isomers) [Example 3]" outcome_measure=MIC measured_result=3.13

[I] Cc1ccc2c(O)c(C(=O)N[C@@H](C(=O)N[C@@H]3C(=O)N4[C@@H]3SC(C)(C)[C@@H]4C(=O)O)c3ccc(O)cc3)cnc2n1 [Example 7]
[II] CC1(C)S[C@@H]2[C@H](NC(=O)[C@H](NC(=O)c3cnc4ccc(O)nc4c3O)c3ccc(O)cc3)C(=O)N2[C@H]1C(=O)O [Example 22]
Q: Lab log: flag the item ( I or II ) with the smaller MIC figure. Indicate which entry you chose by stating its label.
Result: I

[I] CCOC(=O)Oc1ccc([C@@H](NC(=O)c2cnc3ccccc3c2OC(=O)OCC)C(=O)N[C@@H]2C(=O)N3[C@@H]2SC(C)(C)[C@@H]3C(=O)O)cc1 [Example 12]
[II] CC1(C)S[C@@H]2[C@H](NC(=O)C(NC(=O)c3cnc4cccnc4c3O)c3cccc(O)c3)C(=O)N2[C@H]1C(=O)O (stereo partly drawn) [Example 16]
Q: So which one has the bigger MIC here, I or II ? Indicate which entry you chose by stating its label.
Result: I
(I: 6.25 µg/mL, II: 3.13 µg/mL)

[P] CC(C)(C)C(=O)Oc1ccc([C@@H](NC(=O)c2cnc3ccccc3c2O)C(=O)N[C@@H]2C(=O)N3[C@@H]2SC(C)(C)[C@@H]3C(=O)O)cc1 [Example 4]
[Q] CCOC(=O)Oc1ccc([C@@H](NC(=O)c2cnc3cccnc3c2OC(=O)OCC)C(=O)N[C@@H]2C(=O)N3[C@@H]2SC(C)(C)[C@@H]3C(=O)O)cc1 [Example 37]
Q: So which one has the bigger MIC here, P or Q ? Indicate which entry you chose by stating its label.
Result: P

[1] CC1(C)S[C@@H]2[C@H](NC(=O)C(NC(=O)c3cnc4ccccc4c3O)c3ccc(O)cc3)C(=O)N2[C@H]1C(=O)O (mixture of isomers) [Example 6]
[2] CCOC(=O)Oc1ccc([C@@H](NC(=O)c2cnc3ccc(SC)nc3c2O)C(=O)N[C@@H]2C(=O)N3[C@@H]2SC(C)(C)[C@@H]3C(=O)O)cc1 [Example 17]
Q: So which one has the bigger MIC here, 1 or 2 ? Indicate which entry you chose by stating its label.
Result: 1
(1: 6.25 µg/mL, 2: 1.56 µg/mL)
